- System Name: sodium channel (ENaC), canine bronchial epithelia (Canis lupus familiaris, UniProt A0A8I3MKE6+A0A8I3Q679+Q95165)
- Construct: endogenous in cells; host or cells: primary canine bronchial epithelial cells cultured at air-liquid interface, mounted in Ussing chambers
- Sequence (A0A8I3Q679 1-649): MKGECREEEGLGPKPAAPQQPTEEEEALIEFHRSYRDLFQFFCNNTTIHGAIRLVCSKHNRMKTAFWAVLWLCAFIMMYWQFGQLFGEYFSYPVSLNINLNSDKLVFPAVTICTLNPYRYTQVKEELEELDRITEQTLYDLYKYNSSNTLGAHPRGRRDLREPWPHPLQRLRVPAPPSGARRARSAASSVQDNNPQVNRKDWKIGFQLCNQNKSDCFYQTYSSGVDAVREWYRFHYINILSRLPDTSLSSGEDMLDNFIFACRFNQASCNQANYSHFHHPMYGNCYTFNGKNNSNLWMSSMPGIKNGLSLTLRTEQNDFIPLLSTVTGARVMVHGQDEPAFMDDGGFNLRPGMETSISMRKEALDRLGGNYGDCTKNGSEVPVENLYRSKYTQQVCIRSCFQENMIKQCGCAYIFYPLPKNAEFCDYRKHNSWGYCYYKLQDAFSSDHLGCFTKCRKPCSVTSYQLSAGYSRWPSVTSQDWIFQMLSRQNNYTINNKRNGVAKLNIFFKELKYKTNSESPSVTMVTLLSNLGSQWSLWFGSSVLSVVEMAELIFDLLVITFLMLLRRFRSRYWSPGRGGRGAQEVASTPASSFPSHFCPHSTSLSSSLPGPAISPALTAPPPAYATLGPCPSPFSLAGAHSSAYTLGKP
- Sequence (Q95165 1-641): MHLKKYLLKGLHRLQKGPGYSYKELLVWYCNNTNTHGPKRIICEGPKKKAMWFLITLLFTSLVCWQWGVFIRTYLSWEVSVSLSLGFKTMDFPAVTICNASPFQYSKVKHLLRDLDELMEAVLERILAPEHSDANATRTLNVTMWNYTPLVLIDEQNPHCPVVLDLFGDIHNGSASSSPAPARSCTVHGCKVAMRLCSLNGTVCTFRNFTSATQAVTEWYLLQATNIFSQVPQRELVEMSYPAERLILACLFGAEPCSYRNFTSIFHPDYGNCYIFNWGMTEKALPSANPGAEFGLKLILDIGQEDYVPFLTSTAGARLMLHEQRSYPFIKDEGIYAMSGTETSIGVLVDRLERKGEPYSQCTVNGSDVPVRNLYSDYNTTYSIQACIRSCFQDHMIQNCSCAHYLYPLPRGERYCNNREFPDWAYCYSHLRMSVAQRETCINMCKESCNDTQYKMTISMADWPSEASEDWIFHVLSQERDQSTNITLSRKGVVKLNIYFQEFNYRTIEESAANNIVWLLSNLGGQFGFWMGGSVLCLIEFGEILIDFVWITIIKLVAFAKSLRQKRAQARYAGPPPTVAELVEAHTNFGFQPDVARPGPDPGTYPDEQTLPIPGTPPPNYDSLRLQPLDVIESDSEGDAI
- Sequence (A0A8I3MKE6 1-646): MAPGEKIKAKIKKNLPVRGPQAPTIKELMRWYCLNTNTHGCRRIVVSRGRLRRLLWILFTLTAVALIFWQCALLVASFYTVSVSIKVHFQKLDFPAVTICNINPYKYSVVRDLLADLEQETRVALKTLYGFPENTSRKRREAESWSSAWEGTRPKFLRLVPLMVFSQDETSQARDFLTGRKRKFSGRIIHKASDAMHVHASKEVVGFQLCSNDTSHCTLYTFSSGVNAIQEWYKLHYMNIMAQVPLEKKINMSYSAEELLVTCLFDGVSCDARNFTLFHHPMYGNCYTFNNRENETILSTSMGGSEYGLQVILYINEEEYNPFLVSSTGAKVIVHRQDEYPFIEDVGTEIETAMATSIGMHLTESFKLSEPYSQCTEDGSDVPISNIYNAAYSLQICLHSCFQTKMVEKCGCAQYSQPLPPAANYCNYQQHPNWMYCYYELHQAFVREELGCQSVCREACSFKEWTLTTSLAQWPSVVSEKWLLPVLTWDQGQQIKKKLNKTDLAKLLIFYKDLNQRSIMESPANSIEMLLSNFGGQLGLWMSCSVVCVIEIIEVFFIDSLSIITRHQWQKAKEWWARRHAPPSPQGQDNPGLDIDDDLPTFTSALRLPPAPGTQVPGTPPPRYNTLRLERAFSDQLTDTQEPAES
- Experiment Notes: In vitro measure of sodium channel blocking activity: inhibition of short circuit current (ISC) in airway epithelial monolayers in Ussing chambers
- Format: cell-based
- Particulars: mean of N runs
Structures can show the parent of a compound that is named as a salt.
Quantity Measured: EC50 (nM)

>>> val("N=C(NCCCCc1ccc(NCCNC[C@@H](O)CO)cc1)NC(=O)c1nc(Cl)c(N)nc1N [PSA 16721, trihydrochloride]")
25.4
>>> val("C[N+](C)(C)CCOc1ccc(CCCCNC(=N)NC(=O)c2nc(Cl)c(N)nc2N)cc1.Cl.[Cl-] [PSA 11223, hydrochloride]")
14.7
>>> val("Cl.N=C(N)NCC(O)COc1ccc(CCCCNC(=N)NC(=O)c2nc(Cl)c(N)nc2N)cc1 (stereo not shown) [PSA 11975, hydrochloride]")
4.85
>>> val("COC(=O)[C@@H](N)COc1ccc(CCCCNC(=N)NC(=O)c2nc(Cl)c(N)nc2N)cc1")
32
>>> val("N=C(NCCCCc1ccc(N(CCN(C[C@H](O)CO)C[C@H](O)CO)C[C@H](O)CO)cc1)NC(=O)c1nc(Cl)c(N)nc1N")
33.2
>>> val("COC(=O)[C@H](N)CCCc1ccc(CCCCNC(=N)NC(=O)c2nc(Cl)c(N)nc2N)cc1")
32.3
>>> val("N=C(NCCCCc1ccc(OCCC(N)C(=O)O)cc1)NC(=O)c1nc(Cl)c(N)nc1N (stereo not shown)")
29.3
